Assay: Cytotoxicity against Homo sapiens (human) MCF7/ADR cells assessed as inhibition of cell proliferation after 48 hr by SRB assay
Assay type: cell-based, NCI/ADR-RES
Settings: human, nci/adr-res, 48 h
Quick list: log10 IC10 per entry.
Record value = log10 of IC10 given in µM.

The cases that follow already have their log10 IC10 on record.
{"compound": "COC(=O)C(CNCCc1ccc(OC)c(OC)c1)Cc1ccc2c(c1)OCO2 (racemic)", "log10 IC10": 1.02}
{"compound": "COC(=O)C(CNCCc1ccc(OC)c(OC)c1)C(O)c1ccc([N+](=O)[O-])cc1 (configuration not stated)", "log10 IC10": 1.20}
{"compound": "COC(=O)C(CNCCc1ccc(OC)c(OC)c1)Cc1ccc(OC)c(OC)c1 (racemic)", "log10 IC10": 0.38}
{"compound": "COC(=O)/C(=C\\c1ccc2c(c1)OCO2)CNCCc1ccc(OC)c(OC)c1", "log10 IC10": 1.14}
{"compound": "COC(=O)/C(=C\\c1ccc([N+](=O)[O-])cc1)CNCCc1ccc(OC)c(OC)c1", "log10 IC10": -1.30}

Q: Provide log10 IC10 value for the following compound: COC(=O)C(CNCCc1ccc(OC)c(OC)c1)C(O)c1ccccc1 (mixture of isomers)
A: 1.15

Q: Quote log10 IC10 reported for "COC(=O)/C(=C\c1ccc(OC)c(OC)c1)CNCCc1ccc(OC)c(OC)c1" please.
A: 0.87

Q: Identify the reported log10 IC10 for the following entry. "COC(=O)/C(=C\c1ccccc1)CNCCc1ccc(OC)c(OC)c1"
A: 1.11

Q: Read off the recorded log10 IC10 for COC(=O)C(CNCCc1ccc(OC)c(OC)c1)C(O)c1ccc(OC)c(OC)c1 (single isomer, unassigned; form 2)
A: 1.48

Q: Output log10 IC10 of COC(=O)C(CNCCc1ccc(OC)c(OC)c1)C(O)c1ccc(OC)c(OC)c1 (single isomer, unassigned; form 1)
A: 1.58

Q: Entry COC(=O)C(CNCCc1ccc(OC)c(OC)c1)C(O)c1ccc2c(c1)OCO2 (mixture of isomers) needs its log10 IC10 filled in; supply it.
A: 1.32

Q: Please look at this compound and report its log10 IC10: COC(=O)C(CNCCc1ccc(OC)c(OC)c1)Cc1ccccc1 (racemic)
A: 1.18
